Molecular target: T1, rat alpha CGRP (SEQ ID NO: 82) (rat)
T1 peptide: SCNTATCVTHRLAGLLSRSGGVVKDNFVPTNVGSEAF
Test: cell-based or functional assay
// IC50, CGRP-induced cAMP production, L6 cells lookup, one value per entry
reported.endpoint: IC50, CGRP-induced cAMP production, L6 cells (nM)

• lipocalin mutein SEQ ID NO: 19 (designed binder, biotinylated by NHS chemistry for capture in SPR) QDSTSDLIPAPPLSKVPLQQNFQDNQFHGKWYVVGRAGNDTLREDKDPEKMEATIYELKEDKSYNVTDVGLVQKKCMYVIHTFVPGSQPGEFTLGNIKSYPGVTSALVRVVSTNYNQHAMVFVKLVKQSRELFEITLYGRTKELTSELKENFIRFSKSLGLPENHIVFPVPIDQCIDGSAWSHPQFEK = 0.07
• lipocalin mutein SEQ ID NO: 11 (designed binder, biotinylated by NHS chemistry for capture in SPR) QDSTSDLIPAPPLSKVPLQQNFQDNQFHGKWYVVGWAGNTLLREDKDPIKMQAIIYELKEDRSYNVTWVYFSEKKCNYHIETFVPGSQPGEFTLGTIKSYPGETPILVRVVSTNYNQHAMVFFKGVNQNREIFEIILYGRTKELTNELKENFIRFSKSLGLPENHIVFPVPIDQCIDGSAWSHPQFEK = 0.08
• lipocalin mutein SEQ ID NO: 14 (designed binder, biotinylated by NHS chemistry for capture in SPR) QDSTSDLIPAPPLSKVPLQQNFQDNQFHGKWYVVGRAGNDALREDKDPEKMEATIYELKEDKSYNVTDVGFVQKKCMYVIHTFVPGSQPGEFTLGNIKSYPGVTSALVRVVSTNYNQHAMVFFKLVKQNRELFEITLYGRTKELTSELKENFIRFSKSLGLPENHIVFPVPIDQCIDGSAWSHPQFEK = 0.12
